Examples of molecules with documented inhibition follow.
- test: M. tuberculosis growth inhibition, HTS (AID 449762);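 also: bacterial growth assessed after seven days of incubation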
- test_context: M. tuberculosis H37Rv growth inhibition, 7H9 media; at 25 µM; stronger effect = higher value
About 1,900 (0.58%) of roughly 330,000 compounds were called active. Another 4% or so got no clear call; they are omitted. Not all results are given here. Entries with a potency or affinity are not part of this list.
Unit % implied. Number only.

The molecule listed as `COc1ccc(-c2c(-c3ccc(OC)c(C)c3O)n[nH]c2C)cc1` has a reported inhibition of 10.4

Reported inhibition ( Cc1cccc(NC(=O)c2ccc(S(=O)(=O)N3CCCCC3C)cc2)n1 (stereo unspecified) ) = 8.6

Please fill in: inhibition reported for `C=CCNC(=O)COc1cc(C)cc(C)c1C` = -2.5

inhibition in this record for CCCCSC1(SCCCC)N=C(N)C2(C#N)C(c3ccccc3)NC(C)=CC12C#N (stereo unspecified) : -0.17

The measured inhibition associated with `CC(=O)c1cccc(OCC(=O)N2CCN(CC(=O)Nc3cccc(F)c3)CC2)c1` reads -12.4

Consider `Cc1[nH]ncc1N=Cc1ccc([N+](=O)[O-])cc1` . Its measured inhibition is 1.43

Recorded result, CCOc1ccc(NC(=O)NNC(=O)C2CCC(C(C)(C)C)CC2)cc1 (stereo unspecified) , inhibition: -6.75

response.value for `COC(=O)c1c(C(=O)OC)c2n(c1C)CCC2` (field: inhibition) = -2.13

The recorded inhibition for entry `O=C(O)c1cc(N/N=C/c2ccc(OCc3ccccc3)cc2)ccc1Cl` equals -0.4

molecule `COC(=O)c1ccc(C(=O)OC)c(NC(=O)CSc2ccccn2)c1` , inhibition observed: 45

Consider `CC(C)n1ncc2c(C(=O)Nc3ccc(S(C)(=O)=O)cc3)cc(C3CC3)nc21` . Its measured inhibition is 2.05

====

- test: M. tuberculosis growth inhibition, HTS (AID 449762);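 also: bacterial growth assessed after seven days of incubation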
- test_context: M. tuberculosis H37Rv growth inhibition, 7H9 media; at 25 µM; stronger effect = higher value
In all, about 330,000 compounds went through this assay and about 1,900 (0.58%) were called active. About 4% were inconclusive and are not listed. Only a sample is shown. Results with a measured potency or affinity are listed apart.
Recorded inhibition, one value per entry.
Hi! Could you send only the number? It should be in %, unit omitted.

compound=Oc1cc(NCCc2cccnc2)cc2cccnc12 readout_units=% result_value=11.9
compound=Cc1ccc2[nH]c(C(=O)O)c(-c3ccccc3)c2c1 readout_units=% result_value=6.59

Short answer for `Cc1nonc1NC(=O)CSc1ccccn1` : inhibition was 2.01

Just so you know, measured inhibition for `COc1cc(NC(=O)c2c(-c3ccccc3Cl)noc2C)c2ncccc2c1` came out at -6.92

inhibition reported for this compound `CCOC(=O)N1CCC(N(CCN(C)C)C(=S)Nc2ccccc2OCC)CC1` : 7.57

Per the records, this compound ( `CCN(CC(=O)Nc1c(F)cccc1F)C(=O)CCCc1nc2ccccc2c(=O)[nH]1` ) has inhibition equal to 5.24

Please fill in: inhibition reported for `COc1ccc(OCC(=O)NNc2nc3ccccc3s2)cc1` = 70

The compound listed as `CCCC/C(=N/O)c1c(C)[nH]c2ccccc12` shows inhibition equal to -0.42

According to the records, this compound `COc1ccc(CN2CCC(Oc3ccc(C(=O)NCc4ccccn4)cc3)CC2)c(F)c1` displays inhibition of -12.3

// sample `c1cc2c3c(cccc3c1)C(N1CCCCC1)=N2` , its inhibition was -4.9

The compound listed as `Cn1c(-c2ccsc2)c(-c2cccs2)c2cc(-c3ccc4cc[nH]c4c3)ccc21` shows inhibition equal to -1.89

Reported inhibition for `Cc1c(Nc2cc(=O)oc3ccccc23)c(=O)n(-c2ccccc2)n1C` was -1.53

Lookup result for `Clc1cccc(Cl)c1COc1ccncc1` ; measured inhibition: -7.66

get_value(item= `CCOC(=O)c1c(CC(C)C)csc1NC(=O)C(C)C` , readout=inhibition) returns 1.18

// field: inhibition; key: `Cc1cc(=O)oc2cc(NC(=S)NNC(=O)c3c(Cl)cnn3C)ccc12` ; value = -1.94

Reported inhibition for `Cc1ccc(C(=O)OCC(=O)N2CCC(c3ccccc3)=N2)cc1` was -0.51

Measured inhibition of `O=C(c1ccc2c(c1)OCO2)N1CCc2ccccc21` : -5.13

Measured inhibition, `CC(C)c1ccc(/C=N/NC(=O)c2c(Cl)cnn2C)cc1` : -0.44

Input `CC1(C)Cc2c(sc(NC(=O)C(=O)N3CCCC3)c2C(=O)O)CO1` . Output inhibition: 1.82

Memo: `CCN1CCN(c2nc3c(c(=O)[nH]c(=O)n3C)n2CCCc2ccccc2)CC1` , reported inhibition: -0.19

get_value(item= CCCCCCCNC(=O)C1(CC2CC(c3ccccc3)=NO2)CCNCC1 (centres undefined) , readout=inhibition) returns -6.2
